assay.explanation: AUC (0 to infinity) in Sprague-Dawley rat at 1 mg/kg, iv measured up to 24 hrs by LC-MS/MS analysis
Assay type: ADME, organism-based
Design: route intravenous, dose 1 mg/kg, time <=24
assay.setup: in vivo
# AUC(0-inf) listing for each entry below

O=C(Nc1cncc(OCC2CCN(Cc3ccc(F)cc3)CC2)c1)c1ccnc(NC(=O)C2CC2)c1 : 407 ng·h/mL

Shift focus to the following entry.
[Q] Read off the recorded AUC(0-inf) for O=C(Nc1cncc(OCC2CCN(Cc3ccccc3)CC2)c1)c1ccnc(NC(=O)C2CC2)c1
[A] 152 ng·h/mL

---

assayed.target: Glycogen synthase kinase-3 beta (Homo sapiens, UniProt P49841)
Sequence (P49841 whole entry): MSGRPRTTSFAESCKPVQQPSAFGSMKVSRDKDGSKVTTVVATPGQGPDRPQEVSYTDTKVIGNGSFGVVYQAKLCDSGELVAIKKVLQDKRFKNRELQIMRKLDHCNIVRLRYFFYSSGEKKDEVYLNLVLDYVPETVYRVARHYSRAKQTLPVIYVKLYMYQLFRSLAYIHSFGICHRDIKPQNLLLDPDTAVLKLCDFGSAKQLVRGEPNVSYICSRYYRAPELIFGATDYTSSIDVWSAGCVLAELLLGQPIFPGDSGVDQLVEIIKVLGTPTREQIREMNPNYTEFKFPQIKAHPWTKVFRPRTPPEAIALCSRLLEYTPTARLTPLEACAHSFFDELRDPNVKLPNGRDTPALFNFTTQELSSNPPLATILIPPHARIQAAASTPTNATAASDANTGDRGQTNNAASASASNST
assay.explanation: Inhibition of human recombinant N-terminal His-tagged GSK3beta expressed in Escherichia coli using RRRPASVPPSPSLS RHS(pS)HQRR as substrate incubated for 30 mins in presence of ATP by Kinase-Glo reagent based luminescence assay
# pIC50 listing for each entry below
The scale used: pIC50 is minus the common logarithm of the concentration in molar units.

Take a look at these entries with their results.
O=C(NCC1CCN(Cc2ccccc2)CC1)c1n[nH]c2ccc(-c3cccnc3)cc12 : 7.02
COc1cccc(CN2CCC(CNC(=O)c3cncc(NC(=O)c4ccnc(NC(=O)C5CC5)c4)c3)CC2)c1 : 6.90

[Q] Read off the recorded pIC50 for O=C(NCC1CCN(Cc2cccc(F)c2)CC1)c1cncc(NC(=O)c2ccnc(NC(=O)C3CC3)c2)c1
[A] 7.01

[Q] Read off the recorded pIC50 for O=C(NCC1CCN(Cc2ccc(F)c(F)c2)CC1)c1cncc(NC(=O)c2ccnc(NC(=O)C3CC3)c2)c1
[A] 6.55

[Q] Read off the recorded pIC50 for O=C(Nc1cncc(OCC2CCN(Cc3ccccc3Cl)CC2)c1)c1ccnc(NC(=O)C2CC2)c1
[A] 7.10

[Q] Read off the recorded pIC50 for O=C(NCC1CCN(Cc2cccc(Cl)c2)CC1)c1cncc(NC(=O)c2ccnc(NC(=O)C3CC3)c2)c1
[A] 6.64

---

assayed.target: UniProtKB P22303
Sequence (P22303 whole entry): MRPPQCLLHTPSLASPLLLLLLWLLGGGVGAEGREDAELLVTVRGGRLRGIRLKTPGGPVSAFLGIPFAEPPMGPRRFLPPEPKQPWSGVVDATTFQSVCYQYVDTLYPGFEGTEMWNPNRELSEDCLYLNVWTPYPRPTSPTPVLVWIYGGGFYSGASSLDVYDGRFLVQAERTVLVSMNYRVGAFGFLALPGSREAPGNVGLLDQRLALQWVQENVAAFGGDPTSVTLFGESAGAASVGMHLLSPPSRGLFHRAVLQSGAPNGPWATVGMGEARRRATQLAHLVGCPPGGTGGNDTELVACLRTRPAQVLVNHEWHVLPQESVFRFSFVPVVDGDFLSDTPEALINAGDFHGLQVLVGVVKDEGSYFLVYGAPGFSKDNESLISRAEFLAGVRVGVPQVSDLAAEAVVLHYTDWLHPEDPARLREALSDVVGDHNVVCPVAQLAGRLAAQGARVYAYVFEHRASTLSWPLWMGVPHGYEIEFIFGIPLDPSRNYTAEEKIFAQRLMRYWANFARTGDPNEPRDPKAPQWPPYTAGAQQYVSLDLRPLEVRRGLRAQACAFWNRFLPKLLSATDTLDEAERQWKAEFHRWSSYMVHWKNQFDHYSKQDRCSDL
assay.explanation: Inhibition of human recombinant AChE preincubated for 1 min in presence of DNTB followed by addition of acetylthiocholine iodide substrate and measured after 20 mins by Ellman's method
pIC50: −log10 of the molar value.
Assign 1.0 whenever pIC50 does not fall below 6; assign 0.0 whenever it does.

Solved entries (count: 5):
COc1cccc(CN2CCC(CNC(=O)c3cncc(NC(=O)c4ccnc(NC(=O)C5CC5)c4)c3)CC2)c1 : 0.0
O=C(Nc1cncc(C(=O)NC2CCN(Cc3ccccc3)CC2)c1)c1ccnc(NC(=O)C2CC2)c1 : 1.0
O=C(NC1CCN(Cc2ccc(F)cc2)CC1)c1cncc(NC(=O)c2ccnc3[nH]ccc23)c1 : 1.0
O=C(CC1CCN(Cc2ccccc2)CC1)Nc1n[nH]c2cc(-c3cccnc3)ccc12 : 1.0
CC(=O)Nc1cc(C(=O)Nc2cncc(OCC3CCN(Cc4ccc(F)cc4)CC3)c2)ccn1 : 1.0

[Q] Is it the case that O=C(Nc1cncc(OCC2CCN(Cc3ccc(F)cc3)CC2)c1)c1ccnc(NC(=O)C2CC2)c1 has pIC50 reaching or exceeding 6?
[A] 1.0

[Q] Is it the case that O=C(NCC1CCN(Cc2ccccc2F)CC1)c1cncc(NC(=O)c2ccnc(NC(=O)C3CC3)c2)c1 has pIC50 reaching or exceeding 6?
[A] 0.0

[Q] Is it the case that O=C(NCC1CCN(Cc2cccc(F)c2)CC1)c1cncc(NC(=O)c2ccnc(NC(=O)C3CC3)c2)c1 has pIC50 reaching or exceeding 6?
[A] 0.0

[Q] Is it the case that O=C(NC1CCN(Cc2ccccc2)CC1)c1cncc(NC(=O)c2ccnc3[nH]ccc23)c1 has pIC50 reaching or exceeding 6?
[A] 1.0
